- experiment: Selectivity index, ratio of IC50 for antiproliferative activity against human L02 cells assessed as inhibition of cell growth to IC50 for antiproliferative activity against human MCF7 cells assessed as inhibition of cell growth
- Assay type: toxicity, cell-based
- condition.description: L02 cells versus MCF7 cells, read-out: Ratio IC50
property.name: selectivity ratio

1. CC1=C(O)C(=O)C=C2C1=CC=C1[C@@]2(C)CC[C@@]2(C)[C@@H]3C[C@](C)(C(=O)O)CC[C@]3(C)CC[C@]12C [CELASTROL]    0.29

====

- experiment: Selectivity index, ratio of IC50 for antiproliferative activity against human L02 cells assessed as inhibition of cell growth to IC50 for antiproliferative activity against human MCF7 cells assessed as inhibition of cell growth
- Format: toxicity, cell-based
- condition.description: L02 cells versus MCF7 cells, read-out: Selectivity Index
Kindly apply the following: met if selectivity ratio is less than 2, not met in every other case.

1. Cc1c2c(cc3c1OCO3)C1=CC[C@@]3(C)[C@@H]4C[C@](C)(NC(=O)N5CCN(CCN(C)C)CC5)CC[C@]4(C)CC[C@]3(C)[C@]1(C)C=C2    met
2. Cc1c2c(cc3ncoc13)C1=CC[C@@]3(C)[C@@H]4C[C@](C)(NC(=O)NCCN(C)C)CC[C@]4(C)CC[C@]3(C)[C@]1(C)C=C2    met
3. Cc1c2c(cc3nccnc13)C1=CC[C@@]3(C)[C@@H]4C[C@](C)(NC(=O)NCCN(C)C)CC[C@]4(C)CC[C@]3(C)[C@]1(C)C=C2    met
4. Cc1c2c(cc3ncoc13)C1=CC[C@@]3(C)[C@@H]4C[C@](C)(NC(=O)N5CCN(CCN6CCOCC6)CC5)CC[C@]4(C)CC[C@]3(C)[C@]1(C)C=C2    not met
5. Cc1c2c(cc3ncoc13)C1=CC[C@@]3(C)[C@@H]4C[C@](C)(NC(=O)N5CCN(CCN(C)C)CC5)CC[C@]4(C)CC[C@]3(C)[C@]1(C)C=C2    met
